Measured MIC99, listed per entry.
Test system: Mycobacterium tuberculosis
experimental_protocol: Antimycobacterial activity Mycobacterium tuberculosis H37Rv assessed as growth inhibition measured at day 7 by broth microdilution method
Format: functional
particulars: 168 h
Quick reminder: number only, in µM, skip the unit.

Reference set, count: 3
O=Cc1ccc(CO[C@@H]2COc3nc([N+](=O)[O-])cn3C2)cc1; 0.25
O=Cc1cccc(CO[C@@H]2COc3nc([N+](=O)[O-])cn3C2)c1; 0.625
CC(C)(C)n1nnnc1C(NCCCCNc1ccnc2cc(Cl)ccc12)c1ccc(CO[C@@H]2COc3nc([N+](=O)[O-])cn3C2)cc1 (some centres undefined); 0.625

Incoming: Recorded MIC99 for CC(C)(C)n1nnnc1C(c1ccc(CO[C@@H]2COc3nc([N+](=O)[O-])cn3C2)cc1)N1CCCC1 (some centres undefined) with Mycobacterium tuberculosis, please?
Outgoing: 0.313

Incoming: Recorded MIC99 for CC(C)(C)n1nnnc1C(NCCNc1ccnc2cc(Cl)ccc12)c1ccc(CO[C@@H]2COc3nc([N+](=O)[O-])cn3C2)cc1 (some centres undefined) with Mycobacterium tuberculosis, please?
Outgoing: 0.313

Incoming: Recorded MIC99 for COc1cc(NC(C)CCCNC(c2cccc(CO[C@@H]3COc4nc([N+](=O)[O-])cn4C3)c2)c2nnnn2C(C)(C)C)c2ncccc2c1 (some centres undefined) with Mycobacterium tuberculosis, please?
Outgoing: 5

Incoming: Recorded MIC99 for O=[N+]([O-])c1cn2c(n1)OC[C@@H](OCCCNc1ccnc3cc(Cl)ccc13)C2 with Mycobacterium tuberculosis, please?
Outgoing: 1.25

Incoming: Recorded MIC99 for NC[C@H]1O[C@H](O[C@H]2[C@H](O)[C@@H](O[C@H]3O[C@H](CO)[C@@H](O)[C@H](N)[C@H]3O)[C@H](N)C[C@@H]2N)[C@H](O)[C@@H](O)[C@@H]1O [KANAMYCIN] with Mycobacterium tuberculosis, please?
Outgoing: 5.4
